All values here come from ChEMBL document CHEMBL2413072.

Tested on: SK-MEL-2
Test: Growth inhibition of human SK-MEL-2 cells by sulforhodamine B assay
Assay type: functional
Settings: read-out: LC50 (the source's name)
measurementType: CC50 (µM)
Use µM as the unit, but write only the number.

Solved entries:
CC(C)=CC(=O)O[C@@H]1CC(C)(C)C[C@H]2C3=CC[C@@H]4[C@@]5(C)CCC(=O)C(C)(C)[C@@H]5CC[C@@]4(C)[C@]3(C)CC[C@@]12C(=O)O; 61.3
C/C=C(/C)C(=O)O[C@@H]1CC(C)(C)C[C@H]2C3=CC[C@@H]4[C@@]5(C)CC[C@H](O)C(C)(C)[C@@H]5CC[C@@]4(C)[C@]3(C)CC[C@@]12C(=O)O [Reduced Lantadene A]; 8.29
CC(C)=CC(=O)O[C@@H]1CC(C)(C)C[C@H]2C3=CC[C@@H]4[C@@]5(C)CC[C@H](O)C(C)(C)[C@@H]5CC[C@@]4(C)[C@]3(C)CC[C@@]12C(=O)O [Reduced Lantadene B]; 67

Entry CC1(C)C[C@@H](O)[C@]2(C(=O)O)CC[C@]3(C)C(=CC[C@@H]4[C@@]5(C)C/C(=C\C=C\c6ccccc6)C(=O)C(C)(C)[C@@H]5CC[C@]43C)[C@@H]2C1 — recorded CC50 = 26.3
